Where do the numbers come from? From patent US12202839B2.

target: recombinant human His6-tagged PTP4A1 (Homo sapiens (Human), UniProt Q93096); test: In vitro biochemical analysis of PTP4A inhibition, DiFMUP substrate; details: DiFMUP 12 μM, 25° C., 25 minutes; read-out: IC50 values for Compounds Inhibiting Activity of PTP4A Family Members (mean (nM) ± S.E.M.), PTP4A1
Sequence (Q93096 whole entry): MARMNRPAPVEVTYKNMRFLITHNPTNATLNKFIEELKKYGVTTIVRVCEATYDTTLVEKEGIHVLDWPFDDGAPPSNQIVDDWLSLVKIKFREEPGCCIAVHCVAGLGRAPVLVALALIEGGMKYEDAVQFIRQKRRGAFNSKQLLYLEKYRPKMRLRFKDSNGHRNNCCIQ
Below is a list of entries, each paired with its recorded IC50 value.
Report the value in nM with no unit label.

Observe how each entry below is paired with its result.
| compound | data.value |
| --- | --- |
| N=C1C(=O)NC(=O)c2cc(-c3ccc(OCCN4CCOCC4)cc3)sc21 [Compound 9o] | 43.2 |
| CN1C(=O)C(=N)c2sc(-c3ccccc3)cc2C1=O [Compound 9p] | 133 |

Kindly review the next compound as well.
Problem: Tell me IC50 reported for N=C1C(=O)NC(=O)c2cc(-c3ccccc3Cl)sc21 [Compound 9k]
Solution: 49
